Assignment: determine reported Cell viabilities in % of the controls for the given compounds.
- System: peritoneal cells of mice
- assay comment: Cell viability of mouse peritoneal cells (WST-1 kit)
- Format: cell-based
- run parameters: Table 3B, substance 50 μmol·l^−1, 24 h

>  <smiles entry>
CCCCc1c(Cl)nc(N)nc1-c1ccccc1

>  <reported metric>
Cell viabilities in % of the controls

>  <reading>
94.17 ± 8.43; n = 8 % of the controls

$$$$
>  <smiles entry>
CCCCc1c(-c2ccc(F)cc2)nc(N)nc1-c1ccco1

>  <reported metric>
Cell viabilities in % of the controls

>  <reading>
119.71 ± 4.71; n = 8 % of the controls

$$$$
>  <smiles entry>
CCCCc1c(-c2ccncc2)nc(N)nc1-c1cc2ccccc2s1

>  <reported metric>
Cell viabilities in % of the controls

>  <reading>
85.12 ± 0.76; n = 8 % of the controls

$$$$
>  <smiles entry>
CCCCc1c(-c2cccnc2)nc(N)nc1-c1ccsc1

>  <reported metric>
Cell viabilities in % of the controls

>  <reading>
90.73 ± 10.89; n = 4 % of the controls

$$$$
>  <smiles entry>
CCCCc1c(Cl)nc(N)nc1-c1ccncc1

>  <reported metric>
Cell viabilities in % of the controls

>  <reading>
87.62 ± 6.58; n = 4 % of the controls

$$$$

Below are 5 compounds. Give each one its Cell viabilities in % of the controls.
1. CCCCc1c(-c2cccs2)nc(N)nc1-c1cccs1
2. CCCCc1c(-c2ccccc2)nc(N)nc1-c1ccco1
3. CCCCc1c(-c2ccccn2)nc(N)nc1-c1cc2ccccc2s1
4. CCCCc1c(-c2ccco2)nc(N)nc1-c1cccs1
5. CCCCc1c(-c2cccnc2)nc(N)nc1-c1cc2ccccc2o1

Reply:
["102.36 ± 6.45; n = 8 % of the controls", "104.21 ± 14.38; n = 8 % of the controls", "130.66 ± 2.87; n = 8 % of the controls", "55.22 ± 5.10; n = 4 % of the controls", "76.10 ± 6.23; n = 8 % of the controls"]

Below are 4 compounds. Give each one its Cell viabilities in % of the controls.
1. CCCCc1c(-c2ccc(OC)cc2)nc(N)nc1-c1cccs1
2. CCCCc1c(-c2ccc(OC)cc2)nc(N)nc1-c1ccoc1
3. CCCCc1c(-c2ccccc2)nc(N)nc1-c1cccc2ccccc12
4. CCCCc1c(-c2cc3ccccc3o2)nc(N)nc1-c1cccs1

Reply:
1. 125.52 ± 5.28; n = 8 % of the controls
2. 137.10 ± 2.72; n = 12 % of the controls
3. 110.75 ± 3.69; n = 4 % of the controls
4. 90.22 ± 7.99; n = 12 % of the controls

Below are 3 compounds. Give each one its Cell viabilities in % of the controls.
1. CCCCc1c(-c2ccoc2)nc(N)nc1-c1cc2ccccc2o1
2. CCCCc1c(-c2ccccn2)nc(N)nc1-c1cccs1
3. CCCCc1c(-c2ccc(F)cc2)nc(N)nc1-c1ccoc1

Reply:
1: 42.62 ± 11.49; n = 12 % of the controls; 2: 104.15 ± 10.36; n = 8 % of the controls; 3: 147.62 ± 3.25; n = 8 % of the controls

* * *

- System: peritoneal cells of mice
- assay comment: Cell viability of mouse peritoneal cells (WST-1 kit)
- Assay type: cell-based
- run parameters: Table 3A, substance 50 μmol·l^−1, 24 h
Assignment: determine reported Cell viability in % of the controls for the given compounds.

>  <compound>
CCCCc1c(Cl)nc(N)nc1-c1cc2ccccc2o1

>  <target under test>
peritoneal cells of mice

>  <reading>
147.78 ± 5.90 % of the controls

$$$$

Below are 8 compounds. Give each one its Cell viability in % of the controls.
1. CCCCc1c(Cl)nc(N)nc1-c1cccnc1
2. Nc1nc(I)c(Cc2ccccc2)c(I)n1
3. CCCc1c(Cl)nc(N=CN(C)C)nc1Cl
4. C=CCc1c(Cl)nc(N=CN(C)C)nc1Cl
5. Cc1c(Cl)nc(N)nc1Cl
6. Cc1c(Cl)nc(NC=O)nc1Cl
7. Nc1nc(Cl)c(Cc2ccccc2)c(Cl)n1
8. C#CCc1c(Cl)nc(N)nc1Cl

Reply:
["166.77 ± 22.51 % of the controls", "78.60 ± 5.33 % of the controls", "109.35 ± 8.88 % of the controls", "136.13 ± 11.32 % of the controls", "98.55 ± 17.60 % of the controls", "66.37 ± 8.13 % of the controls", "105.92 ± 20.65 % of the controls", "90.58 ± 17.05 % of the controls"]

Below are 6 compounds. Give each one its Cell viability in % of the controls.
1. CC(C)c1c(Cl)nc(N)nc1Cl
2. C=C(Cl)Cc1c(Cl)nc(NC=O)nc1Cl
3. CCc1c(Cl)nc(N)nc1Cl
4. CCC(C)c1c(Cl)nc(N)nc1I (centres unmarked)
5. CCCCCCc1c(Cl)nc(NC=O)nc1Cl
6. Nc1nc(Br)c(Cc2ccccc2)c(Br)n1

Reply:
1: 91.18 ± 9.90 % of the controls; 2: 37.13 ± 1.27 % of the controls; 3: 91.53 ± 10.78 % of the controls; 4: 49.11 ± 3.29 % of the controls; 5: 144.97 ± 18.27 % of the controls; 6: 90.18 ± 3.75 % of the controls

Below are 6 compounds. Give each one its Cell viability in % of the controls.
1. CCC(C)c1c(Cl)nc(N=CN(C)C)nc1Cl (centres unmarked)
2. CCC(C)c1c(Cl)nc(NC=O)nc1Cl (centres unmarked)
3. CCCCc1c(Cl)nc(NC=O)nc1Cl
4. CCCc1c(Cl)nc(N)nc1Cl
5. C=CCc1c(Cl)nc(NC=O)nc1Cl
6. CN(C)C=Nc1nc(Cl)c(-c2ccccc2)c(Cl)n1

Reply:
1: 122.65 ± 14.39 % of the controls; 2: 77.51 ± 14.73 % of the controls; 3: 92.15 ± 9.90 % of the controls; 4: 87.86 ± 9.18 % of the controls; 5: 95.37 ± 15.40 % of the controls; 6: 80.00 ± 11.61 % of the controls

Below are 2 compounds. Give each one its Cell viability in % of the controls.
1. CN(C)C=Nc1nc(Cl)c(Cc2ccccc2)c(Cl)n1
2. CCCCc1c(-c2cc3ccccc3o2)nc(N)nc1-c1cc2ccccc2o1

Reply:
96.24 ± 11.9 % of the controls
75.01 ± 13.63 % of the controls
